Reference for the values: ChEMBL document CHEMBL6177988

- Test name: Selectivity index, ratio of CC50 for cytotoxicity against human A549 cells harboring ACE2-CI33 assessed as cell viability by celltiter glo assay to EC50 for antiviral activity against SARS-CoV-2 Wuhan infected in human A549 cells harboring ACE2-Cl33
- Type: toxicity, cell-based
- Condition set: read-out: Ratio CC50/EC50
Endpoint label: selectivity ratio
Just the number, please.

# Smiles representation, Numeric result
measured = [
    ("CN(C)CCCCNCc1ccc(-c2cc3c(ccn3-c3ccccc3)c(-c3ccc(CNCCCCN(C)C)cc3)n2)cc1", 2.18),
    ("CN(C)CCCCNCc1ccc(-c2cc(-c3ccc(CNCCCCN(C)C)cc3)c3ccn(-c4ccccc4)c3n2)cc1", 7.38),
    ("CN(C)CCCCNCc1ccc(-c2cc(-c3ccc(CNCCCCN(C)C)cc3)c3ccn(-c4ccccc4)c3c2)cc1", 1.88),
    ("CN(C)CCCCNCc1ccc(-c2nc(-c3ccc(CNCCCCN(C)C)cc3)c3ccn(-c4ccc(CNCCCCN(C)C)cc4)c3n2)cc1", 6.67),
]

// below: selectivity ratio requested for another compound
Give the measured selectivity ratio of "CN(C)CCCCCNCc1ccc(-c2cc(-c3ccc(CNCCCCCN(C)C)cc3)c3ccn(-c4ccccc4)c3c2)cc1" . 2.35
